// provenance: the RNAGym collection of RNA variant scans (doi:10.7554/elife.80360)

B1: CPEB3 Ribozyme (parent)
chain: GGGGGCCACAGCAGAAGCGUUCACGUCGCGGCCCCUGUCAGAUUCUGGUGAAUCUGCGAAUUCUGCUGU

# Variants of: B1
# PROTOCOL_NOTES: self-cleavage, relative activity (ratio to wild type); higher = more cleavage; co-transcriptional
Outcome label depends on self-cleavage relative to 0.3: at/above gives MET, below gives NOT MET.

| PRIMARY_SEQUENCE | CLASS_NAME |
| --- | --- |
| GGGGGCCACAGCAGAAGCGUUCACGUCGCGGCCCCUGCCAGAAUCUGGUGAAUCUGCGAAUUCUGCUGU [U38C U43A] | MET |
| GCGGGCCUCAGCAGAAGCGUUCACGUCGCGGCCCCUGUCAGAUUCUGGUGAAUCUGCGAAUUCUGCUGU [G2C A8U] | NOT MET |
| GGGGGCCACAGCAGACGCGUUCACGUCGCGGCCCCUGUCAGAUUCUGGUGAAUCUGCGAAUUCUGCAGU [A16C U67A] | MET |
| GGGGGCCACAGCAGAAGCGUUCACGUCGCGGCCCCUGUCAGGUACUGGUGAAUCUGCGAAUUCUGCUGU [A42G U44A] | MET |
| GGGGGCCACAGCAGAAGCGUUCACGUCGCGGCCCCUGUUAGAUUCUGGUGAAUCUGCGAAUUCCGCUGU [C39U U64C] | MET |
| GGGGGCCGCAGCAGAAGCGUUCACGUCGCGGCCCCUGUCAGAUUCUGGUGAAUAUGCGAAUUCUGCUGU [A8G C54A] | MET |
| GGGGGCCACAGCAGAAGCGUUCACGUCGCGGACCCAGUCAGAUUCUGGUGAAUCUGCGAAUUCUGCUGU [C32A U36A] | NOT MET |
| GGGGGCCACAGCAGAAACGUUCACGUCGCGGCCCCUGUCAGAUUCUGGUGAACCUGCGAAUUCUGCUGU [G17A U53C] | NOT MET |
| GUGGGCCACAGCCGAAGCGUUCACGUCGCGGCCCCUGUCAGAUUCUGGUGAAUCUGCGAAUUCUGCUGU [G2U A13C] | NOT MET |
| GGGGGCCACAGCAGAAGCGUUCACGUCGCCGCCCCUGUCAGAUUCUGGUGAAUCUGCGAAUUCUGCUGG [G30C U69G] | MET |
| GGGGGCCACAGCAGAAGCGUUCACGUCGCGGCCCAUGUCAGAGUCUGGUGAAUCUGCGAAUUCUGCUGU [C35A U43G] | NOT MET |
| GGGGGCCACAGCAGAAGCGUACACGUCGCGGCCCCUGUCAGAUUCUGGUGAAUCUGCGCAUUCUGCUGU [U21A A59C] | MET |
| GGGGGCCACAGCAGAAGCGUCCACGUCGCGGCCCCUGUCAGAUUUUGGUGAAUCUGCGAAUUCUGCUGU [U21C C45U] | MET |
| GGGGGCCACAGCAGAAGCGUUCACGUCGCGGCCCCUGUUAGAUUCUGGUGACUCUGCGAAUUCUGCUGU [C39U A52C] | MET |
| GGGGGCCACAGCAGAAGUGUUCACGUCGCGGCCCCUGUCAGAUUCCGGUGAAUCUGCGAAUUCUGCUGU [C18U U46C] | MET |
| GGGGGCCACAGCAGAAGCUUUCACGUCGCGGCCCCUGUCAGAUUCUGGUGAAUCUGCGAAUUCUCCUGU [G19U G65C] | NOT MET |
| GGGGUCCACAGCAGAAGCGUUCACGUCGCGGCCCCUGUCAGUUUCUGGUGAAUCUGCGAAUUCUGCUGU [G5U A42U] | NOT MET |
| GCGGGCCACAGCAGAAGCGUUCACGUCGCGGCCCCUGUCAGAUUCUGGUGAAUCUUCGAAUUCUGCUGU [G2C G56U] | NOT MET |
